Taken from patent US20240209076A1.

- assay.system: T1, recombinant human IL-6 (human, UniProt P05231 30-212)
- T1 construct: Flowed in solution over the captured antibodies
- T1 sequence (P05231 30-212 limits assumed): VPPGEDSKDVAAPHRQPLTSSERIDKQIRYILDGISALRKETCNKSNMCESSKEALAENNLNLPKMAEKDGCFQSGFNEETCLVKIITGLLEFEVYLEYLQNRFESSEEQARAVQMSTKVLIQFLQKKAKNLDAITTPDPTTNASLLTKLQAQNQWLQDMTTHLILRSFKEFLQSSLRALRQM
- experiment.notes: SPR (Biacore), supernatant IgG on Protein A, 25 C
readout.label: koff

>  <binder>
anti-IL-6 antibody, heavy chain F27R, light chain WT (antibody, IgG1, V domains shown, Full IgG1 tested; V domains derived as in m2) VH: EVQLVESGGGLVQPGGSLRLSCAASGRTFSPFAMSWVRQAPGKGLEWVAKISPGGSWTYYSDTVTGRFTFSLDTSKSTAYLQMNSLRAEDTAVYYCARQLWGYYALDIWGQGTLVTVSS VL: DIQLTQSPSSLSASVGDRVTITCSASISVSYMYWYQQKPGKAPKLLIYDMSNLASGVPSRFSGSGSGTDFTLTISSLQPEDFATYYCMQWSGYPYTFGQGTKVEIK

>  <koff>
0.000209 s⁻¹

$$$$
>  <binder>
anti-IL-6 antibody, heavy chain S61R, light chain WT (antibody, IgG1, V domains shown, Full IgG1 tested; V domains derived as in m2) VH: EVQLVESGGGLVQPGGSLRLSCAASGFTFSPFAMSWVRQAPGKGLEWVAKISPGGSWTYYRDTVTGRFTFSLDTSKSTAYLQMNSLRAEDTAVYYCARQLWGYYALDIWGQGTLVTVSS VL: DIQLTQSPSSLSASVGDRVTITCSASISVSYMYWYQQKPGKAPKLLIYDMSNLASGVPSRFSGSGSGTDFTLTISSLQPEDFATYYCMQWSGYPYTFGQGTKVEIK

>  <koff>
0.000162 s⁻¹

$$$$
>  <binder>
anti-IL-6 antibody, heavy chain WT, light chain S24K (antibody, IgG1, V domains shown, Full IgG1 tested; V domains derived as in m2) VH: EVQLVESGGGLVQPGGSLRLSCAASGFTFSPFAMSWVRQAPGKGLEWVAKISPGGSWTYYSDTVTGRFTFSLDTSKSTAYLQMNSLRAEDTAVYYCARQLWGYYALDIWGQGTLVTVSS VL: DIQLTQSPSSLSASVGDRVTITCKASISVSYMYWYQQKPGKAPKLLIYDMSNLASGVPSRFSGSGSGTDFTLTISSLQPEDFATYYCMQWSGYPYTFGQGTKVEIK

>  <koff>
0.000132 s⁻¹

$$$$
>  <binder>
anti-IL-6 antibody, heavy chain Y104V, light chain WT (antibody, IgG1, V domains shown, Full IgG1 tested; V domains derived as in m2) VH: EVQLVESGGGLVQPGGSLRLSCAASGFTFSPFAMSWVRQAPGKGLEWVAKISPGGSWTYYSDTVTGRFTFSLDTSKSTAYLQMNSLRAEDTAVYYCARQLWGYVALDIWGQGTLVTVSS VL: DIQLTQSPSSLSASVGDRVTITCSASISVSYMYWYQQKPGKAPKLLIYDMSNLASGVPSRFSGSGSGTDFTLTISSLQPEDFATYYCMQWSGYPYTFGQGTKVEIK

>  <koff>
0.000703 s⁻¹

$$$$
>  <binder>
anti-IL-6 antibody, heavy chain Y103E, light chain WT (antibody, IgG1, V domains shown, Full IgG1 tested; V domains derived as in m2) VH: EVQLVESGGGLVQPGGSLRLSCAASGFTFSPFAMSWVRQAPGKGLEWVAKISPGGSWTYYSDTVTGRFTFSLDTSKSTAYLQMNSLRAEDTAVYYCARQLWGEYALDIWGQGTLVTVSS VL: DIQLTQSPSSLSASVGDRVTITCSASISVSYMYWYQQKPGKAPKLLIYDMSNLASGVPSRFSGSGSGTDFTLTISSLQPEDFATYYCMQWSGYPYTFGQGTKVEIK

>  <koff>
0.000165 s⁻¹

$$$$
>  <binder>
anti-IL-6 antibody, heavy chain Q99H, light chain WT (antibody, IgG1, V domains shown, Full IgG1 tested; V domains derived as in m2) VH: EVQLVESGGGLVQPGGSLRLSCAASGFTFSPFAMSWVRQAPGKGLEWVAKISPGGSWTYYSDTVTGRFTFSLDTSKSTAYLQMNSLRAEDTAVYYCARHLWGYYALDIWGQGTLVTVSS VL: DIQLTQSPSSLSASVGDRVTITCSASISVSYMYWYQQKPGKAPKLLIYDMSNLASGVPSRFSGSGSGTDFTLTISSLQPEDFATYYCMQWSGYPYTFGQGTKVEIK

>  <koff>
0.00105 s⁻¹

$$$$
>  <binder>
anti-IL-6 antibody, heavy chain WT, light chain S28R (antibody, IgG1, V domains shown, Full IgG1 tested; V domains derived as in m2) VH: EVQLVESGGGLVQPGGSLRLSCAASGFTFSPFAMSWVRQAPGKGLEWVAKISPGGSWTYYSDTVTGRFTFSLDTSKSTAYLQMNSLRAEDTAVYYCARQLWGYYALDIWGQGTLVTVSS VL: DIQLTQSPSSLSASVGDRVTITCSASIRVSYMYWYQQKPGKAPKLLIYDMSNLASGVPSRFSGSGSGTDFTLTISSLQPEDFATYYCMQWSGYPYTFGQGTKVEIK

>  <koff>
0.000171 s⁻¹

$$$$
>  <binder>
anti-IL-6 antibody, heavy chain T63K, light chain WT (antibody, IgG1, V domains shown, Full IgG1 tested; V domains derived as in m2) VH: EVQLVESGGGLVQPGGSLRLSCAASGFTFSPFAMSWVRQAPGKGLEWVAKISPGGSWTYYSDKVTGRFTFSLDTSKSTAYLQMNSLRAEDTAVYYCARQLWGYYALDIWGQGTLVTVSS VL: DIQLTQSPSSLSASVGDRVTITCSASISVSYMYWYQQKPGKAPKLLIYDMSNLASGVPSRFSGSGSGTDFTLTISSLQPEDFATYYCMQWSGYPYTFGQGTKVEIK

>  <koff>
0.000212 s⁻¹

$$$$

In one line, give reported koff of the entry anti-IL-6 antibody, heavy chain G102D, light chain WT (antibody, IgG1, V domains shown, Full IgG1 tested; V domains derived as in m2) VH: EVQLVESGGGLVQPGGSLRLSCAASGFTFSPFAMSWVRQAPGKGLEWVAKISPGGSWTYYSDTVTGRFTFSLDTSKSTAYLQMNSLRAEDTAVYYCARQLWDYYALDIWGQGTLVTVSS VL: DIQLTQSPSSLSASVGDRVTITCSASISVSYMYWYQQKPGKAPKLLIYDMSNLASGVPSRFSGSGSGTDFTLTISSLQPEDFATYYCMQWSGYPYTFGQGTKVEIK .
0.0006 s⁻¹

In one line, give reported koff of the entry anti-IL-6 antibody, heavy chain Q99A, light chain WT (antibody, IgG1, V domains shown, Full IgG1 tested; V domains derived as in m2) VH: EVQLVESGGGLVQPGGSLRLSCAASGFTFSPFAMSWVRQAPGKGLEWVAKISPGGSWTYYSDTVTGRFTFSLDTSKSTAYLQMNSLRAEDTAVYYCARALWGYYALDIWGQGTLVTVSS VL: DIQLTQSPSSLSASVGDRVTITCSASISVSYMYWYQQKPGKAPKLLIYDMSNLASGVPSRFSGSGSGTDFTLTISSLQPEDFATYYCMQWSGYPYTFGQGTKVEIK .
0.000737 s⁻¹
